molecular target: human plasma kallikrein (Homo sapiens (Human), UniProt P03952); experiment: In vitro enzyme inhibition of human plasma kallikrein (PFR-AMC cleavage); conditions: Pro-Phe-Arg-AMC substrate, 37° C., read-out: hPK IC50
pIC50: −log10 of the molar value.
reported_metric: pIC50

Reference set, count: 3
# smiles_text, study_system, pIC50
records = [
    ("Nc1nccc2cc(CNC(=O)c3ccnc(Cc4ccc5ncc(C(F)(F)F)cc5c4)c3)c(F)cc12", "human plasma kallikrein (Homo sapiens (Human), UniProt P03952)", "> 7.00"),
    ("Cc1cc(N)nc(C)c1CNC(=O)c1ccnc(Cc2cc3cc(Cl)cnc3cn2)c1", "human plasma kallikrein (Homo sapiens (Human), UniProt P03952)", "> 7.00"),
    ("CCc1cnc2ccc(Cc3cc(C(=O)NCc4cnc5[nH]cc(Cl)c5c4)ccn3)cc2c1", "human plasma kallikrein (Homo sapiens (Human), UniProt P03952)", "> 7.00"),
]

In the following, a different compound is considered.
[in] # get_value(readout= pIC50, system= human plasma kallikrein (Homo sapiens (Human), UniProt P03952)) for "O=C(NCc1cc2c(Cl)c[nH]c2cc1F)c1ccnc(Cc2ccc3ncc(C(F)(F)F)cc3c2)c1"
[out] > 7.00

* * *

Reported IC50 by item:
molecular target: human plasma kallikrein (Homo sapiens (Human)); assay: In vitro enzyme inhibition of human plasma kallikrein (PFR-AMC cleavage); conditions: Pro-Phe-Arg-AMC substrate, 37° C., read-out: hPK IC50

# molecule, study_system, reported_metric, result
data = [
    ("CC1=CC2C=NN(Cc3cc(C(=O)NCc4c(C)cc(N)nc4C)ccn3)C2C=C1 (centres unmarked)", "human plasma kallikrein (Homo sapiens (Human))", "IC50", "< 100 nM"),
    ("O=C(NCc1ccc2[nH]cc(Cl)c2c1F)c1ccnc(Cc2ccc3ncc(N4CCCC4)cc3c2)c1", "human plasma kallikrein (Homo sapiens (Human))", "IC50", "100 to 1000 nM"),
    ("Cc1nc2[nH]cc(Cl)c2c(C)c1CNC(=O)c1ccnc(Cc2ccc3ncc(Cl)cc3c2)c1", "human plasma kallikrein (Homo sapiens (Human))", "IC50", "100 to 1000 nM"),
    ("Cc1cnc2c(C(C)(C)O)cc(Cc3cc(C(=O)NCc4cc5c(Cl)c[nH]c5cc4F)ccn3)cc2c1", "human plasma kallikrein (Homo sapiens (Human))", "IC50", "< 100 nM"),
    ("O=C(NCc1cc2c(Cl)c[nH]c2cc1F)c1ccnc(Cc2ccc3ncc(N4CCNCC4)cc3c2)c1", "human plasma kallikrein (Homo sapiens (Human))", "IC50", "1000 to 10000 nM"),
    ("Nc1nccc2cc(CNC(=O)c3ccnc(Cc4ccc5ncc(C6CC6)cc5c4)c3)ccc12", "human plasma kallikrein (Homo sapiens (Human))", "IC50", "< 100 nM"),
]

[in] Data request, read-out IC50, for "Cc1cc2c(N)nccc2cc1CNC(=O)c1ccnc(Cc2ccc3ncc(Cl)cc3c2)c1"
[out] < 100 nM

[in] Data request, read-out IC50, for "Cc1cnc2c(C(C)(C)O)cc(Cc3cc(C(=O)NCc4n[nH]c5ccc(Cl)cc45)ccn3)cc2c1"
[out] < 100 nM

[in] Data request, read-out IC50, for "Cc1nc(N)ccc1CNC(=O)c1ccnc(Cc2ccc3ncc(CC(F)F)cc3c2)c1"
[out] < 100 nM

[in] Data request, read-out IC50, for "O=C(NCc1cnc2[nH]cc(Cl)c2c1)c1ccnc(Cc2ccc3ncc(C4CC4)cc3c2)c1"
[out] < 100 nM

[in] Data request, read-out IC50, for "Nc1cnc2ccc(Cc3cc(C(=O)NCc4n[nH]c5ccc(Cl)cc45)ccn3)cc2c1"
[out] 1000 to 10000 nM

[in] Data request, read-out IC50, for "Nc1ncc2cc(CNC(=O)c3ccnc(Cc4ccc5ncc(Cl)cc5c4)c3)ccn12"
[out] 100 to 1000 nM

[in] Data request, read-out IC50, for Cc1nc(N)ccc1C(C)NC(=O)c1ccnc(Cc2ccc3ncc(Cl)cc3c2)c1 (centres unmarked)
[out] 1000 to 10000 nM

[in] Data request, read-out IC50, for "Cc1cc(N)nc(C)c1CNC(=O)c1ccnc(Cc2ccc3ncc(C(C)C)cc3c2)c1"
[out] < 100 nM

[in] Data request, read-out IC50, for "Cc1ccn2c(C)nc(CNC(=O)c3ccnc(Cc4ccc5ncc(C(F)(F)F)cc5c4)c3)c2c1"
[out] 100 to 1000 nM

[in] Data request, read-out IC50, for "Cc1cc(N)nc(C)c1CNC(=O)c1cc(CO)nc(Cc2ccc3ncc(Cl)cc3c2)c1"
[out] < 100 nM

[in] Data request, read-out IC50, for "Nc1nccc2cc(CNC(=O)c3ccnc(Cc4ccc5ncc(N6CCCCC6)cc5c4)c3)ccc12"
[out] 1000 to 10000 nM

* * *

Reported pIC50 by item:
molecular target: human plasma kallikrein (Homo sapiens (Human)); assay: In vitro enzyme inhibition of human plasma kallikrein (PFR-AMC cleavage); details: Pro-Phe-Arg-AMC substrate, 37° C., read-out: hPK IC50
pIC50: −log10 of the molar value.

Reference set, count: 3
# smiles_text, study_system, pIC50
data = [
    ("Cc1cc(N)nc(C)c1CNC(=O)c1ccnc(Cc2cc3cc(Cl)ccc3[nH]2)c1", "human plasma kallikrein (Homo sapiens (Human))", "> 7.00"),
    ("CC(C)(O)c1cc(Cc2cc(C(=O)NCc3n[nH]c4ccc(Cl)cc34)ccn2)cc2cc(Cl)cnc12", "human plasma kallikrein (Homo sapiens (Human))", "> 7.00"),
    ("Cc1nc2[nH]cc(Cl)c2cc1CNC(=O)c1ccnc(Cc2ccc3ncc(Cl)cc3c2)c1", "human plasma kallikrein (Homo sapiens (Human))", "> 7.00"),
]

[in] Data request, read-out pIC50, for "O=C(NCc1cnc2ccc(Cl)cn12)c1ccnc(Cc2ccc3ncc(Cl)cc3c2)c1"
[out] < 5.00

* * *

molecular target: cellular kallikrein activity (Homo sapiens (Human), UniProt P03952); assay: In vitro cellular assay (contact assay): kallikrein activity in ellagic acid-activated human plasma, Z-FR-2-AMC substrate; settings: human plasma activated with ellagic acid, 37° C.
Sequence (P03952 391-638): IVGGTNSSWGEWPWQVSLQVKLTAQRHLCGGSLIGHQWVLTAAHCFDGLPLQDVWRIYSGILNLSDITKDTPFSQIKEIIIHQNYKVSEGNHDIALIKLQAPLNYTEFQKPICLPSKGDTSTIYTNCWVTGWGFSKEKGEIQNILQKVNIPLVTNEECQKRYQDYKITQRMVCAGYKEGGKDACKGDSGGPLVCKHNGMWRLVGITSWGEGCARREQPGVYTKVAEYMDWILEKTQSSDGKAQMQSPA
Sequence (P03952 20-390 partner): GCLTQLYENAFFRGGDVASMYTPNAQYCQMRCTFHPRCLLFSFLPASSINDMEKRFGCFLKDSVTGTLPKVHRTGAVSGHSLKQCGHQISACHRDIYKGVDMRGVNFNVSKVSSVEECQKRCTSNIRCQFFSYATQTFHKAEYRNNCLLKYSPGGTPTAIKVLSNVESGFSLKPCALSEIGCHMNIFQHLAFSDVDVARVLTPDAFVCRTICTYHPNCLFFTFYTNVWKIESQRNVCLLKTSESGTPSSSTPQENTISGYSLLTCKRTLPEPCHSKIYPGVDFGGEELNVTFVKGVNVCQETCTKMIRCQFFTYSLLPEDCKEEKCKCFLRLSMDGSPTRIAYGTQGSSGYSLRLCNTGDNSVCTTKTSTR
pEC50: −log10 of the molar value.
reported_metric: pEC50

Reference set, count: 5
# compound, pEC50
measured = [
    ("Cc1cc(N)nc(C)c1CNC(=O)c1cc(CO)nc(Cc2ccc3ncc(Cl)cc3c2)c1 [Example 212]", "> 7.00"),
    ("Cc1cc(CN)nc(C)c1CNC(=O)c1ccnc(Cc2ccc3ncc(C(F)(F)F)cc3c2)c1 [Example 172]", "> 7.00"),
    ("CC(C)(O)c1cc(Cc2cc(C(=O)NCc3n[nH]c4ccc(Cl)cc34)ccn2)cc2cc(Cl)cnc12 [Example 225]", "6.00 to 7.00"),
    ("Cc1nc(N)ccc1CNC(=O)c1ccnc(Cc2cc(Cl)c3ncc(Cl)cc3c2)c1 [Example 101]", "> 7.00"),
    ("Cc1cnc2c(S(N)(=O)=O)cc(Cc3cc(C(=O)NCc4cc5c(Cl)c[nH]c5cc4F)ccn3)cc2c1 [Example 287]", "> 7.00"),
]

[in] Data request, read-out pEC50, for Cc1ccn2cnc(CNC(=O)c3ccnc(Cc4ccc5ncc(Cl)cc5c4)c3)c2c1 [Example 156]
[out] 6.00 to 7.00

[in] Data request, read-out pEC50, for Cc1cc(N)nc(C)c1CNC(=O)c1cc(Cc2ccc3ncc(Cl)cc3c2)nc(C(C)(C)O)c1 [Example 210]
[out] > 7.00

[in] Data request, read-out pEC50, for Cc1cnc2c(S(N)(=O)=O)cc(Cc3cc(C(=O)NCc4ccc5[nH]cc(Cl)c5c4F)ccn3)cc2c1 [Example 290]
[out] 6.00 to 7.00

* * *

Reported IC50 by item:
biological target: human plasma kallikrein (Homo sapiens (Human), UniProt P03952); experiment: In vitro enzyme inhibition of human plasma kallikrein (PFR-AMC cleavage); conditions: Pro-Phe-Arg-AMC substrate, 37° C., read-out: hPK IC50

Reference set, count: 10
# compound, IC50
records = [
    ("Cc1cc(N)nc(C)c1CNC(=O)c1ccnc(Cc2ccc3ncc(C(N)=O)cc3c2)c1", "100 to 1000 nM"),
    ("Cc1nc2c(c(C)c1CNC(=O)c1ccnc(Cc3ccc4ncc(Cl)cc4c3)c1)CCCN2", "< 100 nM"),
    ("Cc1n[nH]c2ccc(CNC(=O)c3ccnc(Cc4ccc5ncc(Cl)cc5c4)c3)cc12", "1000 to 10000 nM"),
    ("CC(=O)Nc1cc(C)c(CNC(=O)c2ccnc(Cc3ccc4ncc(Cl)cc4c3)c2)c(C)n1", "1000 to 10000 nM"),
    ("COc1cnc2ccc(Cc3cc(C(=O)NCc4ccc(N)nc4C)ccn3)cc2c1", "< 100 nM"),
    ("Cc1cc(N)nc(C)c1CNC(=O)c1cc(CN)nc(Cc2ccc3ncc(Cl)cc3c2)c1", "< 100 nM"),
    ("Cc1nc(N)ccc1CNC(=O)c1ccnc(Cc2cc(N)c3ncc(Cl)cc3c2)c1", "< 100 nM"),
    ("Cc1cnc2c(C(C)(C)O)cc(Cc3cc(C(=O)NCc4ccc5[nH]cc(Cl)c5c4F)ccn3)cc2c1", "< 100 nM"),
    ("O=C(NCc1cc2c(Cl)c[nH]c2cc1F)c1ccnc(Cc2ccc3ncc(N4CCCC4)cc3c2)c1", "100 to 1000 nM"),
    ("O=C(NCc1cc2c(Cl)c[nH]c2cc1F)c1ccnc(Cc2ccc3ncc(N4CCCCC4)cc3c2)c1", "1000 to 10000 nM"),
]

[in] Data request, read-out IC50, for Cc1cc(N)nc(C)c1CNC(=O)c1ccnc(C(C)(O)c2ccc3ncc(Cl)cc3c2)c1 (stereo not shown)
[out] 100 to 1000 nM

[in] Data request, read-out IC50, for "Cc1cc(N)nc(C)c1CNC(=O)c1ccnc(Cc2cc3cc(C(F)(F)F)ccc3[nH]2)c1"
[out] 100 to 1000 nM

[in] Data request, read-out IC50, for Cc1cc(C(C)N)nc(C)c1CNC(=O)c1ccnc(Cc2ccc3ncc(Cl)cc3c2)c1 (stereo not shown)
[out] 1000 to 10000 nM

[in] Data request, read-out IC50, for "Cc1cc(N)nc(C)c1CNC(=O)c1ccnc(Cc2cnc3[nH]c(Cl)cc3c2)c1"
[out] 100 to 1000 nM

[in] Data request, read-out IC50, for "CCc1cnc2ccc(Cc3cc(C(=O)NCc4n[nH]c5ccc(Cl)cc45)ccn3)cc2c1"
[out] < 100 nM

[in] Data request, read-out IC50, for "Cc1c(CNC(=O)c2ccnc(Cc3ccc4ncc(Cl)cc4c3)c2)ccc2c(N)nccc12"
[out] < 100 nM
